Listing of recorded IC50 by entry.
- Test system: COLO 205
- test.name: Cytotoxicity against human COLO205 cells assessed as growth inhibition after 24 hrs by MTT assay
- Assay type: functional, cell-based
- details: COLO 205, 24 h
Note: unit µM is implicit; provide only the numeric part.

Below, each entry is followed by its recorded IC50 result.
[
  {
    "sample.smiles": "Cc1ccc(-c2cc(/C=N/c3ccccc3)on2)cc1",
    "unit.label": "µM",
    "value.reported": 28.9
  },
  {
    "sample.smiles": "COc1cccc2c1C(=O)c1c(O)c3c(c(O)c1C2=O)C[C@@](O)(C(=O)CO)C[C@@H]3O[C@H]1C[C@H](N)[C@H](O)[C@H](C)O1",
    "unit.label": "µM",
    "value.reported": 0.7
  }
]

# input for lookup
Name the reported IC50 value associated with the compound C(=N\c1ccccc1)/c1cc(-c2ccccc2)no1
89.1

====

- System: COLO 205
- test.name: Cytotoxicity against human COLO205 cells assessed as growth inhibition after 24 hrs by MTT assay
- Type: functional, cell-based
- details: COLO 205, 24 h
measurement.name: IC50 (µM)
Provide the reading as a plain figure in µM.

[
  {
    "sample.smiles": "CCCc1cc2ccccc2nc1-c1cc(-c2ccc(C(F)(F)F)cc2)no1",
    "system.name": "COLO 205",
    "measurement.name": "IC50",
    "value.reported": 42.2
  },
  {
    "sample.smiles": "CCCCc1cc2ccccc2nc1-c1cc(-c2ccc(F)cc2)no1",
    "system.name": "COLO 205",
    "measurement.name": "IC50",
    "value.reported": 25.3
  },
  {
    "sample.smiles": "CCCCCc1cc2ccccc2nc1-c1cc(-c2ccc(C(F)(F)F)cc2)no1",
    "system.name": "COLO 205",
    "measurement.name": "IC50",
    "value.reported": 24.5
  }
]

# input compound: FC(F)(F)c1ccc(-c2cc(/C=N/c3ccccc3)on2)cc1 ; wanted: its IC50
41.3

Any idea what its IC50 is? The compound is CCCc1cc2ccccc2nc1-c1cc(-c2ccccc2)no1
48.9

May I ask what IC50 has been recorded for CCCCc1cc2ccccc2nc1-c1cc(-c2ccc(C(F)(F)F)cc2)no1 ?
11.9

Requested field: IC50. Item: Fc1ccc(-c2cc(/C=N/c3ccccc3)on2)cc1
33.1

Report IC50 for CCCc1cc2ccccc2nc1-c1cc(-c2ccc(F)cc2)no1 please.
50.3

====

- Tested on: PC-3
- test.name: Cytotoxicity against human PC3 cells assessed as growth inhibition after 24 hrs by MTT assay
- Type: functional, cell-based
- details: PC-3, 24 h
measurement.name: pIC50
Remember, pIC50 is on a log scale: it is -log10 of the molar concentration.

Reference set, count: 2
[
  {
    "compound": "COc1cccc2c1C(=O)c1c(O)c3c(c(O)c1C2=O)C[C@@](O)(C(=O)CO)C[C@@H]3O[C@H]1C[C@H](N)[C@H](O)[C@H](C)O1 [DOXORUBICIN]",
    "measurement.name": "pIC50",
    "value.reported": 6.22
  },
  {
    "compound": "Cc1ccc(-c2cc(/C=N/c3ccccc3)on2)cc1",
    "measurement.name": "pIC50",
    "value.reported": 4.50
  }
]

Request: pIC50, test system PC-3, entry CCCc1cc2ccccc2nc1-c1cc(-c2ccccc2)no1
4.29

Can you look up pIC50 on PC-3 for CCCCc1cc2ccccc2nc1-c1cc(-c2ccc(C(F)(F)F)cc2)no1 ?
4.97

Request - read-out pIC50 | tested on PC-3 | compound CCCc1cc2ccccc2nc1-c1cc(-c2ccc(F)cc2)no1
4.37

Report pIC50 for CCCCc1cc2ccccc2nc1-c1cc(-c2ccc(F)cc2)no1 tested on PC-3.
4.58

Fill in the recorded pIC50 for this compound, with PC-3 as test system: CCCc1cc2ccccc2nc1-c1cc(-c2ccc(C(F)(F)F)cc2)no1
4.47

Return pIC50 measured with PC-3 given this compound: CCCCCc1cc2ccccc2nc1-c1cc(-c2ccc(C(F)(F)F)cc2)no1
4.52

Query the reported pIC50 for PC-3; item: FC(F)(F)c1ccc(-c2cc(/C=N/c3ccccc3)on2)cc1
4.45

Checklist item: pIC50 tested on PC-3, entry Fc1ccc(-c2cc(/C=N/c3ccccc3)on2)cc1 , value?
4.44

This collection of values is drawn from ChEMBL document CHEMBL3124930.
